Reference source: ChEMBL document CHEMBL4680101

Tested on: HeLa
procedure text: Cytotoxicity in human HeLa cells
Assay type: cell-based
quantity measured: IC50

I'd like to know its IC50. The compound in question is O=C(O)C[C@@H]1CCCN(c2ccc(C(=O)NC3CCCCC3)c(OCc3ccccc3F)n2)C1
> 30 µM

Could you do the same for CC(C)CCOc1nc(N2C[C@@H]3[C@H](C2)[C@H]3C(=O)O)ccc1C(=O)NC1C2CC3CC1CC(O)(C3)C2 (some centres undefined) , please?
> 30 µM

Next record, please: COc1nc(N2CCC[C@@H](CC(=O)O)C2)ccc1C(=O)NC1CCCCC1
> 30 µM

Okay, and CC(C)CCOc1nc(N2CCC[C@@H](CC(=O)O)C2)ccc1C(=O)NC1C2CC3CC1CC(O)(C3)C2 (some centres undefined) ?
> 30 µM
